Quick note: these are IC50 numbers for system: Histone deacetylase 6 (Homo sapiens, UniProt Q9UBN7)
Sequence (Q9UBN7 whole entry): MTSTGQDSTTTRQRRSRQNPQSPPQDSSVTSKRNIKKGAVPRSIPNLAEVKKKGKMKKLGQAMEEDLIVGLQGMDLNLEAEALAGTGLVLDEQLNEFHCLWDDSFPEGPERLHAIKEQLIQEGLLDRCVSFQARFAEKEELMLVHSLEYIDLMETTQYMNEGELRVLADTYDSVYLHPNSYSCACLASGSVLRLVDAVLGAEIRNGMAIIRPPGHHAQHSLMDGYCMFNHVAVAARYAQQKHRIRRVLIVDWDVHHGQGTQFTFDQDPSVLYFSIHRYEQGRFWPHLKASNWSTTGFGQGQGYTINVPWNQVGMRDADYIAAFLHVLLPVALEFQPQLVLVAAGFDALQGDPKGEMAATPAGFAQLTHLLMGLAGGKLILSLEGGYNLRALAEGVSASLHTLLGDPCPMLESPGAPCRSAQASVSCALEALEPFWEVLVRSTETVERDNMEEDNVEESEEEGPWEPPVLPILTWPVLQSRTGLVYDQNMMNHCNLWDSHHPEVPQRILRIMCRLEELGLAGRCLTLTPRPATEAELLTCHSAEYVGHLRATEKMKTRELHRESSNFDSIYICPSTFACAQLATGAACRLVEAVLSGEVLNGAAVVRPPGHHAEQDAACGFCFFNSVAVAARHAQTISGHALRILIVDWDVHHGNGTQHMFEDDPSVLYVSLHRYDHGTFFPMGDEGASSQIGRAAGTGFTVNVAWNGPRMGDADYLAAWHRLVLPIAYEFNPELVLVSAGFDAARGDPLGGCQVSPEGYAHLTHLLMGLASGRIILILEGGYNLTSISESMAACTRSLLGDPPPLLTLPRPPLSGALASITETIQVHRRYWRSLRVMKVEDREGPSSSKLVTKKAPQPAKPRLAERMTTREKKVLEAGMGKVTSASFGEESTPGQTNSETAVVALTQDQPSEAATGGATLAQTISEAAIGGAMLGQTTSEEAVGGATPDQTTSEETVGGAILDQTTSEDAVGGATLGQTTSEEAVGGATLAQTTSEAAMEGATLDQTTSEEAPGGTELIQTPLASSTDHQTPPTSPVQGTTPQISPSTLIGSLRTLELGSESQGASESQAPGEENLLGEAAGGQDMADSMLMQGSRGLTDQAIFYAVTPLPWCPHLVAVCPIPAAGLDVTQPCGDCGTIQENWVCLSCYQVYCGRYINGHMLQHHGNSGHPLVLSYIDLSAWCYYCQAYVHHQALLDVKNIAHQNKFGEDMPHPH
measurement-type: IC50 (µM)

• COCCN1CCC(c2ccc3c(c2)C(=O)N(Cc2ccc(-c4nnc(C(F)F)o4)cn2)C(=O)C3(C)C)CC1 [US12440484, Compound 151] = 0.033
• CC1(C)C(=O)N(Cc2ccc(-c3nnc(C(F)F)o3)cn2)C(=O)c2ccc(N3CCCCC3)cc21 [US12440484, Compound 27] = 0.043

====

Biological target: UniProtKB Q13547
Sequence (Q13547 whole entry): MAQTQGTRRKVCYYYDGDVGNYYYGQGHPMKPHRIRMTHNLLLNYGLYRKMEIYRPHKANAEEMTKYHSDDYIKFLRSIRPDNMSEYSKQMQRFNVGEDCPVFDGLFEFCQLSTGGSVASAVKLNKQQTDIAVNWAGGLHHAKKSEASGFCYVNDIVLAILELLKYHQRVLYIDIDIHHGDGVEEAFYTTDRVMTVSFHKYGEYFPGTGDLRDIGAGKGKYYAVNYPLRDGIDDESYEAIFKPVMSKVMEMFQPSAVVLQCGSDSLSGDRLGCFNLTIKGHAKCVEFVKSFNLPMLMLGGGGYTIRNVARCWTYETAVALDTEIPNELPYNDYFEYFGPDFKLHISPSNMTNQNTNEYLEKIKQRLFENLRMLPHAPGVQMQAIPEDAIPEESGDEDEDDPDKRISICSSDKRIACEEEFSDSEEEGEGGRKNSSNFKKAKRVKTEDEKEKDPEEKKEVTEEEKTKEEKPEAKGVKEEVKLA
measurement-type: IC50

Query: Param readout = IC50; param system = UniProtKB Q13547; param query = O=c1c2ccccc2n(CCN2CCCCC2)c(=O)n1Cc1ccc(-c2nnc(C(F)F)o2)cc1F [US12440484, Compound 10] ; response: value
Reply: > 10 µM
